molecular target: Bile acid receptor (Homo sapiens); experiment: Agonist activity at GST-tagged FXRalpha ligand binding domain assessed as biotinylated SRC1 binding after 30 mins by HTRF assay
pEC50: −log10 of the molar value.

smiles repr: NC(=O)c1ccc(NC(=O)[C@@H](Cc2ccccc2)NC(=O)c2ccc(Cl)cc2)cc1
target of assay: Bile acid receptor (Homo sapiens)
pEC50: 4.89

###

Molecular target: Bile acid receptor (Homo sapiens, UniProt Q96RI1)
Sequence (Q96RI1 whole entry): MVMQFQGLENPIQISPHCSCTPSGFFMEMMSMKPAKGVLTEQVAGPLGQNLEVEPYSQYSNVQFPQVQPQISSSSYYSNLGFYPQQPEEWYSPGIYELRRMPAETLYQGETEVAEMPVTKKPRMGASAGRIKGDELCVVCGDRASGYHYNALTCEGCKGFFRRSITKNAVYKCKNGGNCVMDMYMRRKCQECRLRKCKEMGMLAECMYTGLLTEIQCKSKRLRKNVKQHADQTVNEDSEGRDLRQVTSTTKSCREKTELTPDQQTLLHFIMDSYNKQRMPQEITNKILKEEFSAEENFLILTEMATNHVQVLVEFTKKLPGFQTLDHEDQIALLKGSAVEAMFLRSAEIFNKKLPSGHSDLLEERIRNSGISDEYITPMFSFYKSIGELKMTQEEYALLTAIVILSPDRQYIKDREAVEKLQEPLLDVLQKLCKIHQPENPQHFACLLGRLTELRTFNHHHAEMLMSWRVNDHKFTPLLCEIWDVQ
Assay: Antagonist activity at GST-tagged FXRalpha ligand binding domain assessed as inhibition of CDCA-induced biotinylated SRC1 binding after 30 mins by HTRF assay
pIC50: −log10 of the molar value.
test readout: pIC50

smiles repr: C[C@@H]1CCc2c(sc3nc(CN4CCOCC4)nc(N[C@H](c4ccccc4)c4ccccn4)c23)C1
target of assay: Bile acid receptor (Homo sapiens, UniProt Q96RI1)
test readout: pIC50
readout value: 5.08
--
smiles repr: O=C(COC(=O)c1ccc(O)cc1)Nc1sc2c(c1C(=O)c1ccccc1)CCCC2
target of assay: Bile acid receptor (Homo sapiens, UniProt Q96RI1)
test readout: pIC50
readout value: 5.42

###

molecular target: Bile acid receptor (Homo sapiens); assay: Agonist activity at FXRalpha expressed in HEK293 cells assessed as increase in transcriptional activity after 18 hrs by luciferase reporter gene assay; format: functional, cell-based
test readout: EC50 (nM)

smiles repr: NC(=O)c1ccc(NC(=O)[C@@H](Cc2ccccc2)NC(=O)c2ccc(Cl)cc2)cc1
readout value: 2600

###

molecular target: Bile acid receptor (Homo sapiens, UniProt Q96RI1); test: Agonist activity at FXR; type: functional
pEC50: −log10 of the molar value.
test readout: pEC50

smiles repr: Cc1cc(OCc2c(-c3c(Cl)cncc3Cl)noc2C(C)C)ccc1-c1ccc2c(c1)c(C(=O)O)cn2C
readout value: 7.03
--
smiles repr: COC(=O)/C=C/c1cccc(N(Cc2ccc(/C=C/c3ccccc3)cc2)C(=O)C2CCCCC2)c1
readout value: 7.44

Data origin: ChEMBL document CHEMBL2157979
